experimentalTarget: T1, Human CD3eg linker (human)
T1 construct: Single chain: epsilon and gamma subunits of human CD3 joined by a 29-mer linker, Flag-tag at the C-terminus; also called recombinant human CD3
T1 chain: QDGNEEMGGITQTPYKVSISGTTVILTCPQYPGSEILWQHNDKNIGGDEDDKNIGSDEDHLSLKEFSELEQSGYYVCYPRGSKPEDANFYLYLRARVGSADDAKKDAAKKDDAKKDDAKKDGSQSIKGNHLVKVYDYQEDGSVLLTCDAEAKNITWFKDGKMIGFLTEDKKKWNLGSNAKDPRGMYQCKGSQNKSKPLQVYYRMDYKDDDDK
assay: Biacore SPR, vs template H183/L072
quantityMeasured: fold change of affinity (fold)
One number for each entry, in fold.

# annotated cases, reported fold change of affinity shown
binder | displayUnit | fold change of affinity
H183/L072 VH K52bE (antibody, name in Kabat numbering, V domains shown) VH: QVQLVESGGGLVQPGRSLRLSCAASGFTFSNAWMHWVRQAPGKGLEWVAQIKDEGNAYAAYYAPSVKGRFTISRDDSKNSIYLQMNSLKTEDTAVYYCHYVHYASASTVLPAFGVDAWGQGTTVTVSS VL: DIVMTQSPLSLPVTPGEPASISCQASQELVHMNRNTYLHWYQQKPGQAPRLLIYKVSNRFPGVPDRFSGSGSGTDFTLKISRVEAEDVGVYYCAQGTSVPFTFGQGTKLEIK | fold | 0.5
H183/L072 VH H35D (antibody, name in Kabat numbering, V domains shown) VH: QVQLVESGGGLVQPGRSLRLSCAASGFTFSNAWMDWVRQAPGKGLEWVAQIKDKGNAYAAYYAPSVKGRFTISRDDSKNSIYLQMNSLKTEDTAVYYCHYVHYASASTVLPAFGVDAWGQGTTVTVSS VL: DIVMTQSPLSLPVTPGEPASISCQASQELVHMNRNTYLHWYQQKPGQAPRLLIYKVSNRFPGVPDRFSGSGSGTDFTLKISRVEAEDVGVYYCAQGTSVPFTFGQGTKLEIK | fold | 0

Now look at this one.
Dear colleague, I am looking for the recorded fold change of affinity of the following binder: H183/L072 VH G52cS (antibody, name in Kabat numbering, V domains shown) VH: QVQLVESGGGLVQPGRSLRLSCAASGFTFSNAWMHWVRQAPGKGLEWVAQIKDKSNAYAAYYAPSVKGRFTISRDDSKNSIYLQMNSLKTEDTAVYYCHYVHYASASTVLPAFGVDAWGQGTTVTVSS VL: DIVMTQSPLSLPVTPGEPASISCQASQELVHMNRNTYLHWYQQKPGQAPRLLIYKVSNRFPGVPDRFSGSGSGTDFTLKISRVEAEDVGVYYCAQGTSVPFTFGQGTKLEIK
1
